Origin of the recorded values: ChEMBL document CHEMBL3046602

- Tested on: Aphis medicaginis
- ASSAY DETAILS: Insecticidal activity against Aphis medicaginis assessed as insect mortality at 100 mg/L measured after 72 hr post compound treatment
- Type: functional
Overview of recorded mortality at 100 µg/mL for various compounds

>  <COMPOUND STRING>
CCOC(=O)CN1CN/C(=N\[N+](=O)[O-])N(Cc2ccc(Cl)nc2)C1

>  <TGT>
Aphis medicaginis

>  <mortality at 100 µg/mL>
≥ 70%

$$$$
>  <COMPOUND STRING>
CCOC(=O)[C@@H](c1ccc(Cl)cc1)N1CN/C(=N\[N+](=O)[O-])N(Cc2ccc(Cl)nc2)C1

>  <TGT>
Aphis medicaginis

>  <mortality at 100 µg/mL>
≥ 60%

$$$$
>  <COMPOUND STRING>
CCOC(=O)[C@H](C(C)C)N1CN/C(=N\[N+](=O)[O-])N(Cc2cnc(Cl)s2)C1

>  <TGT>
Aphis medicaginis

>  <mortality at 100 µg/mL>
≥ 60%

$$$$
>  <COMPOUND STRING>
CCOC(=O)[C@H](C)N1CN/C(=N\[N+](=O)[O-])N(Cc2ccc(Cl)nc2)C1

>  <TGT>
Aphis medicaginis

>  <mortality at 100 µg/mL>
≥ 60%

$$$$
>  <COMPOUND STRING>
CCOC(=O)[C@H](CCSC)N1CN/C(=N\[N+](=O)[O-])N(Cc2ccc(Cl)nc2)C1

>  <TGT>
Aphis medicaginis

>  <mortality at 100 µg/mL>
≥ 60%

$$$$
>  <COMPOUND STRING>
CCOC(=O)[C@H](CC(C)C)N1CN/C(=N\[N+](=O)[O-])N(Cc2cnc(Cl)s2)C1

>  <TGT>
Aphis medicaginis

>  <mortality at 100 µg/mL>
100%

$$$$
>  <COMPOUND STRING>
O=[N+]([O-])/N=C1\NCCN1Cc1ccc(Cl)nc1

>  <TGT>
Aphis medicaginis

>  <mortality at 100 µg/mL>
100%

$$$$
>  <COMPOUND STRING>
CCOC(=O)C[C@@H](C(=O)OCC)N1CN/C(=N\[N+](=O)[O-])N(Cc2cnc(Cl)s2)C1

>  <TGT>
Aphis medicaginis

>  <mortality at 100 µg/mL>
≥ 80%

$$$$
>  <COMPOUND STRING>
CCOC(=O)[C@H](Cc1ccccc1)N1CN/C(=N\[N+](=O)[O-])N(Cc2ccc(Cl)nc2)C1

>  <TGT>
Aphis medicaginis

>  <mortality at 100 µg/mL>
≥ 60%

$$$$
>  <COMPOUND STRING>
CCOC(=O)CC(CC(=O)OCC)N1CN/C(=N\[N+](=O)[O-])N(Cc2cnc(Cl)s2)C1

>  <TGT>
Aphis medicaginis

>  <mortality at 100 µg/mL>
≥ 70%

$$$$
